# SYSTEM_NAME: recombinant full-length PfCSP (Plasmodium falciparum circumsporozoite protein, strain NF54) (Plasmodium falciparum NF54, UniProt P19597)
# Sequence (P19597 20-375): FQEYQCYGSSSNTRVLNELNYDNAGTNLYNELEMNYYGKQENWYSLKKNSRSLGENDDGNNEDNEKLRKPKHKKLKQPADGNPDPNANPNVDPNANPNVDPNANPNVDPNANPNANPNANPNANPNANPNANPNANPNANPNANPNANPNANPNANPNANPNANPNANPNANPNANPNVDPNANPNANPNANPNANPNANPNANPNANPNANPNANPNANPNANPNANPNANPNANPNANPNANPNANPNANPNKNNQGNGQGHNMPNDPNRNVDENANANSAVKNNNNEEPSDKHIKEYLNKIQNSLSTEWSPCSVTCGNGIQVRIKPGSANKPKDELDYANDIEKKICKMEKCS
PARAMETER_MEASURED: binding result

| BINDER | RESULT |
| --- | --- |
| CL-509177 (antibody, V domains shown) VH: QVQLVESGGGVVQPGRSLRLSCAASGFSFSSYGMHWVRQTPGKGLEWVAIIWYDGSNKFYADSVKGRFIISRDNSKNTLYLQMNSLRAEDTAVYYCARDGGYSTSAGDFDYWGQGTLVTVSS VL: EIVLTQSPGTLSLSPGERATLSCRASQSVSSSYLAWYQQKPGQAPRLLIYGASSRATGIPDRFSGRGSGTDFTLTISRLEPEDFAVYYCQQYVSSFTFGPGTKVDIN | binds |
| CL-508758 (antibody, V domains shown) VH: QVQLVESGGGVVQPGRSLRLSCAASGFTFSNYGMHWVRQTPGRDLEWVAIIWYDGSYKFYADSVKGRFSISRDNSKNTLNLEMKSLRVEDTAVYYCAKAYDTSSDDKYGMDVWGQGTTVTVTS VL: DIQMTQSPSTLSASVGDRVTITCRASQSISIWLAWYQQKPGKAPKLLIYRASDLESGVPSRFSGSGSGTGFTLTISSLQPDDFATYYCQQYNSYWTFGQGTKVEIK | binds |
